Just for reference, ChEMBL document CHEMBL4406811 is where these values come from.

Biological target: MET (Homo sapiens)
Sequence (P08581 whole entry): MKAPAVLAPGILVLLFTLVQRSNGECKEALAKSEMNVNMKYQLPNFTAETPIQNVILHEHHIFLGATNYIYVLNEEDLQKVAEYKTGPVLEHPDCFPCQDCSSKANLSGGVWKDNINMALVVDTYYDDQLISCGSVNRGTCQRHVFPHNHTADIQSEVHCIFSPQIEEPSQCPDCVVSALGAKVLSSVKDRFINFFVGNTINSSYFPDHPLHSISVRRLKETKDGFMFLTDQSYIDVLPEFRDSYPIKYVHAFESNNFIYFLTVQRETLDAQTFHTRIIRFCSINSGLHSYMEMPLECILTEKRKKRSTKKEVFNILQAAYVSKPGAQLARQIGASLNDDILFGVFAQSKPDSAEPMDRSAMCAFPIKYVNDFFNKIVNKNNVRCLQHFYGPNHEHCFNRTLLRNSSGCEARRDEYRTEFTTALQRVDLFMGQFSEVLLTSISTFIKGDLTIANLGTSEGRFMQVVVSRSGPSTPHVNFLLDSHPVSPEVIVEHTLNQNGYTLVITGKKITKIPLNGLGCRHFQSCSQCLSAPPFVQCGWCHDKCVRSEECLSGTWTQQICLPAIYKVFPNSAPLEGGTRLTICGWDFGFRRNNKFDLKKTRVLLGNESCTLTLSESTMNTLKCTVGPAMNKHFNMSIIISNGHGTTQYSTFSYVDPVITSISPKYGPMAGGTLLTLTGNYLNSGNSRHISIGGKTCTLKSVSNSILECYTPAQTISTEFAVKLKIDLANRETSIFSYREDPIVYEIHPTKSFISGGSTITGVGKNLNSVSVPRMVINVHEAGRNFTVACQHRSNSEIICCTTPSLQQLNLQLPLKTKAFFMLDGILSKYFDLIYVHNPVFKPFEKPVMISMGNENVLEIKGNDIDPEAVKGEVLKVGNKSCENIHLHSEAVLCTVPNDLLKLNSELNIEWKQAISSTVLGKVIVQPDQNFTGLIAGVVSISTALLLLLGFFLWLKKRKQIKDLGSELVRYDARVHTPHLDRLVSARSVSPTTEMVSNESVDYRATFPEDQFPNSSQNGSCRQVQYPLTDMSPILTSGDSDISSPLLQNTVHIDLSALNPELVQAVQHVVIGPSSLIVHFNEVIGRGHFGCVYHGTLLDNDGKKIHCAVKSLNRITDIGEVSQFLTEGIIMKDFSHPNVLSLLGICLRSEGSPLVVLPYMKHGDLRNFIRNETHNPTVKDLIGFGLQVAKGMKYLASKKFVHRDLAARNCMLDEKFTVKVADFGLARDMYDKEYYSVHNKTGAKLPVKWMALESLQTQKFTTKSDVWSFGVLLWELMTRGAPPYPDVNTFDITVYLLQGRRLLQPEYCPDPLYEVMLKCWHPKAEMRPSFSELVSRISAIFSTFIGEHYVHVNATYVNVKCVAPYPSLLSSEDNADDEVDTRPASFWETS
Assay: in vitro
Settings: probe FRET-labeled Tyr 06 peptide
Assign inhibition at 1 h, 25 µM to each entry below.
Please make sure the unit comes right after the number.

Recorded inhibition at 1 h, 25 µM for "CC(C)COc1cccc(Cl)c1-c1cc2cnc(N)nc2nc1N1C[C@@H]2[C@@H](N)[C@@H]2C1" , please?
15%

Recorded inhibition at 1 h, 25 µM for "Nc1ncc2cc(-c3c(Cl)cccc3-c3cccnc3)c(N3C[C@@H]4[C@@H](N)[C@@H]4C3)nc2n1" , please?
7%

====

Biological target: BTK (Homo sapiens, UniProt Q06187)
Sequence (Q06187 whole entry, the tested form may be a part): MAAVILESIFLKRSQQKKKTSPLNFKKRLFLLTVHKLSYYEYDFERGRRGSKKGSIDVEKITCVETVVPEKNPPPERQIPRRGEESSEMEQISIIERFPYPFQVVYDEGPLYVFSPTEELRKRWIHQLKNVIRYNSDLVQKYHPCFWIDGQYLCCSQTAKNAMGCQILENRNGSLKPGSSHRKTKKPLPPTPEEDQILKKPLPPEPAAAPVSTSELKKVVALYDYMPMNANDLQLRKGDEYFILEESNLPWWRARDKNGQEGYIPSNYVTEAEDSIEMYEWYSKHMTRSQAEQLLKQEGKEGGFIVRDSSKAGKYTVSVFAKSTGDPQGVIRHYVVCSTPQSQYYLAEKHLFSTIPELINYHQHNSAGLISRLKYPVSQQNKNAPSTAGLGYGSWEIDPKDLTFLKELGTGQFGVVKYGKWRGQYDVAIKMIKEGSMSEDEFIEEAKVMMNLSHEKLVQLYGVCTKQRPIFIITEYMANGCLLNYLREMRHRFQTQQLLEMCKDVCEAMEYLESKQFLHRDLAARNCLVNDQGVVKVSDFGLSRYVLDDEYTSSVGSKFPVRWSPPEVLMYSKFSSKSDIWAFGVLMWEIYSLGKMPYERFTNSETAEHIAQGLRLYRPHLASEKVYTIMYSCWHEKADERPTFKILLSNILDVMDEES
Assay: Inhibition of full-length recombinant human His-tagged BTK cytoplasmic domain expressed in baculovirus expression system at 25 uM using FRET-labeled tyr 01 peptide as substrate measured after 1 hr by Z'-lyte assay relative to control
Conditions: probe FRET-labeled tyr 01 peptide
QUANTITY_KIND: inhibition at 1 h, 25 µM (%)
Please respond with the number in % and leave the unit unwritten.

Recorded inhibition at 1 h, 25 µM for "Nc1ncc2cc(-c3c(Cl)cccc3-c3cccnc3)c(N3C[C@@H]4[C@@H](N)[C@@H]4C3)nc2n1" , please?
16
